Attribute: IC50
Molecular target: glucose-6-phosphate dehydrogenase-6-phosphogluconolactonase (Plasmodium falciparum 3D7)
Test: PfG6PD enzyme inhibitors, kinetic NADPH readout, dose response, orthogonal assay, biochemical, kinetic NADPH detection (AID 540269)
Conditions: purified PfG6PD-6PGL
Calls of active or inactive are those of the source. No rule for the calls is given here.

compound	IC50
CCc1cc(-c2n[nH]c(C)c2-c2nc3ccccc3n2C)c(O)cc1O	9.3 µM
Cc1cc(C)c2c(=N)c3ccccc3n(CCCCCCCCn3c4ccccc4c(=N)c4c(C)cc(C)nc43)c2n1	50.3 µM
Cc1cc(C)c2c(=O)n(CC(=O)Nc3ccc(Br)c(C)c3)sc2n1	58.5 µM
Cc1c(/C=C/C(=O)c2ccc(Cl)s2)cnn1C	41.1 µM
C=CCN=c1scc(-c2ccco2)n1/N=C/c1ccc(O)c(O)c1O	58.3 µM
CCCCCCCCSC1=CC(=O)C(OC)=C(OC)C1=O	> 80 µM (inactive)
CN=c1nc(-c2ccccc2)n(-c2ccccc2)s1	20.6 µM
C[c-]1[c-](C)[c-](C)[c-](C)[c-]1C.[Fe].c1cc2nccc(N3CCCC3)[c-]2c1 (stereo not drawn)	52.9 µM
Cc1c(N=C2C=C(Br)C(=O)C(Br)=C2)c(=O)n(-c2ccccc2)n1C	> 80 µM (inactive)
CCc1ccc(S(=O)(=O)Nc2cc(SCC(=O)O)c(O)c3ccccc23)cc1	44.6 µM
COc1ccc(/C=C/c2nc3ccccc3n2C)cc1	17.7 µM
CCn1c2ccccc2c2cc(/C=N/n3cn[nH]c3=S)ccc21	9.07 µM
CCCN1CCc2cc(O)cc3c2[C@H]1Cc1ccc(O)c(O)c1-3	> 80 µM (inactive)
Cc1ccc(NC(=O)c2cc(N3C(=O)C=CC3=O)ccc2N2CCOCC2)cc1	> 80 µM (inactive)
CN1CC[C@@]2(C)c3cc(O)ccc3N(C)[C@@H]12	46.7 µM
COc1cc(Sc2ccc(C)cc2)c(OC)cc1N	> 80 µM (inactive)
CCC(=O)OCCNc1cc(Sc2nc3ccccc3s2)c2nonc2c1[N+](=O)[O-]	> 80 µM (inactive)
COc1cc(-c2cc(=O)c3c(O)c(OC)c(OC)c(O)c3o2)ccc1O	40.3 µM

###

Target: glucose-6-phosphate dehydrogenase-6-phosphogluconolactonase (Plasmodium falciparum 3D7)
Experiment: PfG6PD enzyme inhibitors, kinetic NADPH readout, dose response, orthogonal assay, biochemical, kinetic NADPH detection (AID 540269)
Conditions: purified PfG6PD-6PGL
The source made the active and inactive calls. No rule for the calls is given here.
Labels: 1 (yes) for active, 0 (no) for inactive

molecule	class-label
CCN(CC)c1ccc(C(=C2C=CC(=[N+](CC)CC)C=C2)c2ccc(N(CC)CC)cc2)cc1	1 (yes)
O=C1C=CC(=O)N1c1ccc2c(c1)C(NC(=O)C(F)(F)F)c1ccccc1-2 (stereo not drawn)	0 (no)
O=C1/C(=C\c2ccc([N+](=O)[O-])cc2)CS(=O)(=O)C/C1=C/c1ccc([N+](=O)[O-])cc1	0 (no)
Cn1c(-c2sccc2OCc2cccc(C(F)(F)F)c2)n[nH]c1=S	1 (yes)
O=c1c2ccccc2sn1-c1ccccc1	1 (yes)
Clc1ccc2nc(-c3ccc(Br)s3)cn2c1	0 (no)
Cc1ccc2nc(SCC(=O)NC3CCCc4ccccc43)[nH]c2c1 (stereo not drawn)	0 (no)
CN(C)c1ccc(C=c2c3cc(O)ccc3n3c2cc(-c2ccccc2)[n+]3C)cc1	0 (no)
Cc1cc(C)nc(SSc2nc(C)cc(C)n2)n1	1 (yes)
N#Cc1ccc(N=c2ssnc2Cl)cc1	1 (yes)
COCc1cc(=O)n2[nH]c(C(C)(C)C)cc2n1	1 (yes)
COc1cc(NCCCn2cnc(C(=O)Nc3ccc(C)c(C)c3)n2)cc(OC)c1OC	0 (no)
CN(C)c1ccc2nc3ccc(=O)cc-3sc2c1	0 (no)
